B1: HDAC6 (parent)
chain: KMKTRELHRESSNFDSIYICPSTF

variants of: B1; experiment: protein stability index of a GFP-peptide fusion (GPS, HEK-293T) (PSI 1-6); higher = more stable; conditions: c terminus: a fixed tail appended;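 also: lentivirally expressed fusions sorted by FACS into six bins by GFP to DsRed ratio, PSI derived from sequencing read proportions per bin multiplied by bin number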
Consider the following variants; for each one, report its protein stability index.
Give bare numbers.

// solved cases for protein stability index follow
# variant.annotation, protein stability index
measured = [
    ("R9E", 2.77),
    ("S16V", 2.12),
    ("T23H", 2.28),
    ("F24H", 2.76),
    ("R9I", 1.86),
]

Return reported protein stability index values for all items listed beneath this line.
1. M2V
2. S11I
3. H8V
4. E6R
5. P21A
6. H8N
7. M2C
8. I17P

A)
1: 1.66; 2: 2.71; 3: 2.6; 4: 1.92; 5: 1.77; 6: 2.07; 7: 2.28; 8: 2.41

Return reported protein stability index values for all items listed beneath this line.
1. S22G
2. C20L

A)
1: 2.06; 2: 2.2
